B1: CPEB3 Ribozyme (parent)
chain: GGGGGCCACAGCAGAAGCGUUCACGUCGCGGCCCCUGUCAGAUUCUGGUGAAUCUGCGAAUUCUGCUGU

# Variants of: B1
# protocol-description: self-cleavage, relative activity (ratio to wild type); higher = more cleavage; co-transcriptional
readout: self-cleavage
Output spec: single numeric token, no unit.

Query: Provide self-cleavage value for the following variant: A42C C54G
Result: 0.73

Query: Provide self-cleavage value for the following variant: G65U U67A
Result: 0.848

Query: Provide self-cleavage value for the following variant: G41C U62G
Result: 0.363

Query: Provide self-cleavage value for the following variant: G14U A59U
Result: 0.365

Query: Provide self-cleavage value for the following variant: C33U A51U
Result: 0.963

Query: Provide self-cleavage value for the following variant: C22U G25A
Result: 0.164

Query: Provide self-cleavage value for the following variant: G3U A10U
Result: 0.424

Query: Provide self-cleavage value for the following variant: G48A G65A
Result: 0.992

Query: Provide self-cleavage value for the following variant: A15C U36G
Result: 0.214

Query: Provide self-cleavage value for the following variant: A59C C66G
Result: 0.441

Query: Provide self-cleavage value for the following variant: U55G G65C
Result: 0.417

Query: Provide self-cleavage value for the following variant: U44G G56U
Result: 0.666

Query: Provide self-cleavage value for the following variant: C63G U67G
Result: 0.752

Query: Provide self-cleavage value for the following variant: G4U C18G
Result: 0.0879

Query: Provide self-cleavage value for the following variant: A13C G14U
Result: 0.22

Query: Provide self-cleavage value for the following variant: G2A G19A
Result: 0.0283

Query: Provide self-cleavage value for the following variant: A15U C54A
Result: 0.468

Query: Provide self-cleavage value for the following variant: A15U A59G
Result: 0.856

Query: Provide self-cleavage value for the following variant: A16U U62G
Result: 0.625

Query: Provide self-cleavage value for the following variant: C12A C35A
Result: 0.149

Query: Provide self-cleavage value for the following variant: U44G U49G
Result: 0.927

Query: Provide self-cleavage value for the following variant: C24G G58A
Result: 0.247

Query: Provide self-cleavage value for the following variant: G11A A51U
Result: 0.847

Query: Provide self-cleavage value for the following variant: U21A C27A
Result: 0.447

Query: Provide self-cleavage value for the following variant: A16U U21A
Result: 0.839

Query: Provide self-cleavage value for the following variant: G37A C57G
Result: 0.241

Query: Provide self-cleavage value for the following variant: U46A C57G
Result: 0.31

Query: Provide self-cleavage value for the following variant: G25C U43G
Result: 0.188

Query: Provide self-cleavage value for the following variant: A16U G48C
Result: 0.889

Query: Provide self-cleavage value for the following variant: G37U C54A
Result: 0.227

Query: Provide self-cleavage value for the following variant: C18A G48U
Result: 0.186

Query: Provide self-cleavage value for the following variant: G17U G28C
Result: 0.11

Query: Provide self-cleavage value for the following variant: C35A U36C
Result: 0.245

Query: Provide self-cleavage value for the following variant: G1A C6A
Result: 0.0849

Query: Provide self-cleavage value for the following variant: A42C A52C
Result: 0.803

Query: Provide self-cleavage value for the following variant: U36G U64C
Result: 0.188

Query: Provide self-cleavage value for the following variant: G3C C6U
Result: 0.0391

Query: Provide self-cleavage value for the following variant: G47U A59C
Result: 0.832

Query: Provide self-cleavage value for the following variant: C12U U44C
Result: 0.906

Query: Provide self-cleavage value for the following variant: G14C A52G
Result: 0.57

Query: Provide self-cleavage value for the following variant: C12U G41U
Result: 0.718

Query: Provide self-cleavage value for the following variant: C12A G68C
Result: 0.842

Query: Provide self-cleavage value for the following variant: C7A G65A
Result: 0.496

Query: Provide self-cleavage value for the following variant: U36C U62A
Result: 0.654

Query: Provide self-cleavage value for the following variant: G30U U49A
Result: 0.365

Query: Provide self-cleavage value for the following variant: C22A A52U
Result: 0.118

Query: Provide self-cleavage value for the following variant: A16C A60U
Result: 0.103

Query: Provide self-cleavage value for the following variant: G11C A40C
Result: 0.179

Query: Provide self-cleavage value for the following variant: C39A A59C
Result: 0.386

Query: Provide self-cleavage value for the following variant: G4C C12G
Result: 0.148

Query: Provide self-cleavage value for the following variant: G37U A40C
Result: 0.205

Query: Provide self-cleavage value for the following variant: A16U G56A
Result: 0.616

Query: Provide self-cleavage value for the following variant: C32U U64G
Result: 1.01

Query: Provide self-cleavage value for the following variant: C39U C54G
Result: 0.546
